meta.source: patent US20230219979A1

- TARGET ENTITY: Ba/F3-KIF5B-RET cell (Homo sapiens)
- Construct: fused on or other part: P33176 (Kinesin-1 heavy chain)
- Sequence (P07949 whole entry, change not shown, the tested form may be a part): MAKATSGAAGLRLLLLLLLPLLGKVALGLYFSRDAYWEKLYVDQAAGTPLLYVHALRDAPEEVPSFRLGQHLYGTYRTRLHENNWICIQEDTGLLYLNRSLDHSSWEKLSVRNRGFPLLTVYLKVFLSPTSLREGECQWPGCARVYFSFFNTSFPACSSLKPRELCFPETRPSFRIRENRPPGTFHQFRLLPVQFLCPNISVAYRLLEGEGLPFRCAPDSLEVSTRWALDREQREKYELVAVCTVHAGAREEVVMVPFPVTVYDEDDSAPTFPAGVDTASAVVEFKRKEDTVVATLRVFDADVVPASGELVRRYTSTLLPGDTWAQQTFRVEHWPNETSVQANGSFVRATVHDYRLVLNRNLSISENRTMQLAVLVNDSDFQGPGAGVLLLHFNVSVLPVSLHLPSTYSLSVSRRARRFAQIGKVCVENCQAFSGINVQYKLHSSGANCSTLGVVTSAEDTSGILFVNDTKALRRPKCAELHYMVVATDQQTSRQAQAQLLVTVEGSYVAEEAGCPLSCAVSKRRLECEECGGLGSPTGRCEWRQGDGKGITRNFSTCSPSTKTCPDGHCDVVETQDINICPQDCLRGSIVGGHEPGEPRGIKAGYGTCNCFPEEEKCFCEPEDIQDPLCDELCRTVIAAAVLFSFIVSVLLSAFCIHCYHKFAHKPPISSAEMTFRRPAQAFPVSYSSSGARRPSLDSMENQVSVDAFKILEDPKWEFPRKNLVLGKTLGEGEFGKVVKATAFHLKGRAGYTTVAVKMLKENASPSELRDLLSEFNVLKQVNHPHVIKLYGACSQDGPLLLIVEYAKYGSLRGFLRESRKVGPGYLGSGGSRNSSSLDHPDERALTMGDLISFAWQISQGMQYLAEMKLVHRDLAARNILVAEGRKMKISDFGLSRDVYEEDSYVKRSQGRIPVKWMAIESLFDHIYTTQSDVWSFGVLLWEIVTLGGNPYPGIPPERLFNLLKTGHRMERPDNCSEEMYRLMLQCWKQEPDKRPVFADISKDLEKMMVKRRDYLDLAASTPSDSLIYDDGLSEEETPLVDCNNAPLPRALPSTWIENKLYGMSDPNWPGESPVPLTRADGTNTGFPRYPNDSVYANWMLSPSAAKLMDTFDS
- RUN DESCRIPTION: CellTiter-Glo luminescence assay, inhibitory activity against Ba/F3-KIF5B-RET cell
- Assay type: cell-based
- MEASUREMENT CONTEXT: 72 h, read-out: Ba/F3-KIF5B-RET cell activity
PARAMETER: GI50
Answer format: value, then unit.

Report GI50 under test system Ba/F3-KIF5B-RET cell (Homo sapiens) for COc1ccc(CN2C3CC2CN(c2cnc(-c4cc(OCCN5CC6CC(C5)N6)cn5ncc(C#N)c45)cn2)C3)cn1 .
151 nM

State measured GI50 of the molecule COc1ccc(CN2C3CC2CN(c2cnc(-c4cc(N5CCOCC5)cn5ncc(C#N)c45)cn2)C3)cn1 with Ba/F3-KIF5B-RET cell (Homo sapiens).
6.21 nM

Under Ba/F3-KIF5B-RET cell (Homo sapiens): report GI50 of COc1ccc(CN2C3CC2CN(c2cnc(-c4cc(OCCN5CCC6(COC6)C5)cn5ncc(C#N)c45)cn2)C3)cn1 .
19.1 nM

Consider the molecule COc1ccc(CN2C3CC2CN(c2cnc(-c4cc(OCCN5CC6CCC5C6)cn5ncc(C#N)c45)cn2)C3)cn1 (centres unmarked) tested on Ba/F3-KIF5B-RET cell (Homo sapiens); state its GI50.
37.3 nM

Name the value of GI50 reported for COc1ccc(CN2C3CC2CN(c2ccc(-c4cc(NC(C)C)cn5ncc(C#N)c45)cn2)C3)cn1 when tested on Ba/F3-KIF5B-RET cell (Homo sapiens).
4.14 nM

Given COc1ccc(CN2CCN(c3ccc(-c4cc(OCCN5CC6CCC5C6)cn5ncc(C#N)c45)cn3)CC2)cn1 (centres unmarked) , report its GI50 on Ba/F3-KIF5B-RET cell (Homo sapiens).
225 nM

Fetch value of GI50 on Ba/F3-KIF5B-RET cell (Homo sapiens) for COc1ccc(CN2CCN(c3ccc(-c4cc(OCCN5CCC6(CCOCC6)CC5)cn5ncc(C#N)c45)cn3)CC2)cn1 .
260 nM

Report GI50 from Ba/F3-KIF5B-RET cell (Homo sapiens) testing of COc1ccc(CN2C3CC2CN(c2cnc(-c4cc(OCCN5CCC6(CCCO6)CC5)cn5ncc(C#N)c45)cn2)C3)cn1
27.7 nM

Provide the reported GI50 (system: Ba/F3-KIF5B-RET cell (Homo sapiens)) for CCCNc1cc(-c2ccc(N3CC4CC(C3)N4Cc3ccc(OC)nc3)nc2)c2c(C#N)cnn2c1
1.24 nM

Lab note: Ba/F3-KIF5B-RET cell (Homo sapiens) assay, enter GI50 for CCNc1cc(-c2cnc(N3CC4CC(C3)N4Cc3ccc(OC)nc3)cn2)c2c(C#N)cnn2c1 here
4.43 nM

Please tell me the measured GI50 for CCNc1cc(-c2ccc(N3CC4CC(C3)N4Cc3ccc(-n4cc(F)cn4)nc3)nc2)c2c(C#N)cnn2c1 ; system: Ba/F3-KIF5B-RET cell (Homo sapiens).
142 nM

Tell me its GI50 on Ba/F3-KIF5B-RET cell (Homo sapiens): CCCCNc1cc(-c2ccc(N3CC4CC(C3)N4Cc3ccc(OC)nc3)nc2)c2c(C#N)cnn2c1
4.19 nM

Please respond with reported GI50 (system Ba/F3-KIF5B-RET cell (Homo sapiens)) for COc1ccc(CN2C3CC2CN(c2cnc(-c4cc(OCCN5CCCC56CNC6)cn5ncc(C#N)c45)cn2)C3)cn1 .
1130 nM

Quote GI50 with test system Ba/F3-KIF5B-RET cell (Homo sapiens) for COc1ccc(CN2C3CC2CN(c2ccc(-c4cc(NCC(=O)N(C)C)cn5ncc(C#N)c45)cn2)C3)cn1
11.9 nM
